Read-out: Intercellular Adhesion Molecule 1 (ICAM1), ICAM1 (gene 3383)
protocol_details: BSK_3C_ICAM1: BioMAP Diversity Plus: 3C Assay for Intercellular Adhesion Molecule 1 (ICAM1) Biomarker Activity (AID 2283003)
measurement_setup: primary human endothelial cells (HUVEC); actives raise or lower the signal
Calls of active or inactive are those of the source. How the source made its calls: active means hit-call score of the fitted dose curve at least 0.9, where 1 is the maximum; inactive means score below 0.9.
Choose the fitting class; nothing outside active, inactive is accepted.

Example entries begin here.
| molecule | label_value |
| --- | --- |
| OCc1ccco1 | inactive |
| CCOP(=S)(OCC)SCCS(=O)(=O)CC | inactive |
| Nc1ncc([N+](=O)[O-])s1 | inactive |
| CC12CC1(C)C(=O)N(c1cc(Cl)cc(Cl)c1)C2=O (configuration not stated) | inactive |
| O=S(=O)(c1ccc(Cl)cc1)c1ccc(Cl)cc1 | inactive |
| Oc1c(I)cc(I)cc1I | inactive |

Next item in the queue.
Req: Entry O=C1C2(Cl)C3(Cl)C4(Cl)C(Cl)(Cl)C5(Cl)C3(Cl)C1(Cl)C5(Cl)C24Cl (configuration not stated) : call = ?
Resp: active

###

Read-out: Plasminogen activator inhibitor-1 (PAI1), SERPINE1 (gene 5054)
protocol_details: BSK_hDFCGF_PAI1: BioMAP Diversity Plus: hDFCGF Assay for Plasminogen activator inhibitor-1 (PAI1) Biomarker Activity (AID 2283066)
measurement_setup: primary human foreskin fibroblasts; actives raise or lower the signal
Active and inactive are the calls of the source. The calls were made as follows: active = hit-call score of the fitted dose curve at least 0.9, where 1 is the maximum; inactive = score below 0.9.
Choose the fitting class; nothing outside active, inactive is accepted.

Req: Entry `CCOP(=S)(OCC)Oc1nc(Cl)c(Cl)cc1Cl` : call = ?
Resp: active

Req: Entry `Nc1cccc2ccccc12` : call = ?
Resp: active

###

protocol_details: BSK_LPS_SRB: Viability Assessment in the BioMAP Diversity Plus: LPS Assay (AID 2283079);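 further: total protein by sulforhodamine B absorbance as a cytotoxicity measure; measured one day after compound addition; fitted in both directions against DMSO so loss or gain of signal counts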
measurement_setup: primary human HUVEC with PBMC
Activity calls are given as the source filed them. How the source made its calls: active means hit-call score of the fitted dose curve at least 0.9, where 1 is the maximum; inactive means score below 0.9.
Choose the fitting class; nothing outside active, inactive is accepted.

| molecule | label_value |
| --- | --- |
| CCCCCCCCc1ccc(O)cc1 | active |

Req: Entry CC12CC1(C)C(=O)N(c1cc(Cl)cc(Cl)c1)C2=O (stereo unspecified) : call = ?
Resp: inactive

Req: Entry `C=CC(=O)OCCCCCC(C)C` : call = ?
Resp: inactive

Req: Entry CCCCC(CC)CO[N+](=O)[O-] (stereo unspecified) : call = ?
Resp: inactive

Req: Entry `O=C(O)CCC(F)(C(F)(F)F)C(F)(F)F` : call = ?
Resp: inactive

Req: Entry `CCN1CCC2(CC1)COc1cc3c(cc12)N(C(=O)c1ccc(-c2ccc(-c4nnc(C)o4)cc2C)cc1)CC3` : call = ?
Resp: active

###

experimental_target: Cellular tumor antigen p53 (Homo sapiens) (UniProt P04637)
Sequence (P04637 whole entry, looked up): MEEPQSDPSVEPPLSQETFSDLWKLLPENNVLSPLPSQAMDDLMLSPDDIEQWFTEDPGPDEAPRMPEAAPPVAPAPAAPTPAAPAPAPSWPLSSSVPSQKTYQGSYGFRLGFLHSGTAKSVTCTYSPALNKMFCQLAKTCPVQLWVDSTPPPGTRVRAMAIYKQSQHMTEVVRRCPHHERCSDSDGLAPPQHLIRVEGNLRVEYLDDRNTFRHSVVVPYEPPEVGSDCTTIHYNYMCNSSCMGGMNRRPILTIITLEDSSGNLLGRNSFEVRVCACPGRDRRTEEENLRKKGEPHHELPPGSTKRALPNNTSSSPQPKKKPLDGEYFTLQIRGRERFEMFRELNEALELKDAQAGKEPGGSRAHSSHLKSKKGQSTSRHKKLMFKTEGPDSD
protocol_details: ATG_p53_CIS: Attagene CIS-FACTORIAL HepG2 Assay for human p53 Transcription Factor (AID 2282994)
measurement_setup: HepG2 p53 cis-element reporter, Attagene mRNA; actives raise or lower the signal
Active and inactive are the calls of the source. How the source made its calls: active means hit-call score of the fitted dose curve at least 0.9, where 1 is the maximum; inactive means score below 0.9.
reported_property: AC50

Some entries whose results are on file:
| compound | recorded_measurement |
| --- | --- |
| O=[N+]([O-])c1ccc(O)c([N+](=O)[O-])c1 | inactive |
| C=CC(=O)OCCCCCC(C)C | inactive |
| ClCc1ccccn1 | inactive |
| CCC(=O)c1ccccc1 | inactive |
| CC(=O)c1cc(C(C)(C)C)cc2c1CCC2(C)C | inactive |
| Cc1ccccc1C(=O)Nc1cccc(OC(C)C)c1 | inactive |
| ClCc1cccnc1 | inactive |
| COC[C@H](C)N(C(=O)CCl)c1c(C)csc1C | inactive |
| CCCCC(CC)CO[N+](=O)[O-] (centres undefined) | inactive |
| CN(CCCC(=O)c1cccnc1)N=O | inactive |

Req: Looking for the measured AC50 of `N#CCCO` , can you help?
Resp: inactive

Req: Looking for the measured AC50 of `CCOP(=S)(OCC)Oc1nc(Cl)c(Cl)cc1Cl` , can you help?
Resp: inactive
